- assayText: Inhibition of yeast alpha-glucosidase using p-nitrophenyl-alpha-d-glucopyranoside as substrate preincubated for 10 mins followed by substrate addition measured after 30 mins
- Design: species or system Saccharomyces cerevisiae
pIC50: −log10 of the molar value.
Catalogue of pIC50 readings, one per entry.

Take a look at these entries with their results.
testSmiles: c1ccc(-c2ccc(-c3nn(-c4ccccc4)cc3-c3nc(-c4ccccc4)c(-c4ccccc4)[nH]3)cc2)cc1
observedResult: 4.64 to 5.57
--
testSmiles: Cc1cccc(/C=N/NC(=O)c2ccc(-c3nc4cc(C)c(C)cc4[nH]3)cc2)c1
observedResult: 3.75 to 5.08
--
testSmiles: Cc1cc2nc(-c3ccc(C(=O)NNC(=S)Nc4ccc(F)cc4)cc3)[nH]c2cc1C
observedResult: 3.53 to 4.46
--
testSmiles: O=c1oc2ccc(Br)cc2cc1-c1nn(-c2ccccc2)cc1-c1nc(-c2ccccc2)c(-c2ccccc2)n1-c1ccc(Cl)cc1
observedResult: 5.60
--
testSmiles: Cc1cc2nc(-c3ccc(C(=O)NNC(=S)Nc4ccccc4Br)cc3)[nH]c2cc1C
observedResult: 3.53 to 4.46
--
testSmiles: Cc1cc2nc(-c3ccc(C(=O)N/N=C/c4cccc(F)c4)cc3)[nH]c2cc1C
observedResult: 3.75 to 5.08
--
testSmiles: Brc1ccc(-c2nn(-c3ccccc3)cc2-c2nc(-c3ccccc3)c(-c3ccccc3)[nH]2)cc1
observedResult: 4.64 to 5.57
--
testSmiles: Cc1cc2nc(-c3ccc(C(=O)N/N=C/c4cc(O)ccc4O)cc3)[nH]c2cc1C
observedResult: 5.00 to 5.08
--
testSmiles: Cc1ccc(/C=N/NC(=O)c2ccc(-c3nc4cc(C)c(C)cc4[nH]3)cc2)cc1
observedResult: 3.75 to 5.08
--
testSmiles: O=c1oc2ccccc2cc1-c1nn(-c2ccccc2)cc1-c1nc(-c2ccccc2)c(-c2ccccc2)n1-c1ccc(Cl)cc1
observedResult: 4.34 to 5.60

Requested field: pIC50. Item: Cc1cc(C)cc(-n2c(-c3cn(-c4ccccc4)nc3-c3cc4cc(Br)ccc4oc3=O)nc(-c3ccccc3)c2-c2ccccc2)c1 4.34 to 5.60

Which pIC50 value is on record for COc1cccc(/C=N/NC(=O)c2ccc(-c3nc4cc(C)c(C)cc4[nH]3)cc2)c1 ? 3.75 to 5.08

Requested read-out: pIC50. Entry: c1ccc(-c2nn(-c3ccccc3)cc2-c2nc(-c3ccccc3)c(-c3ccccc3)[nH]2)cc1 4.64 to 5.57

pIC50 lookup needed for COc1ccc(-n2c(-c3cn(-c4ccccc4)nc3-c3cc4cc(Br)ccc4oc3=O)nc(-c3ccccc3)c2-c2ccccc2)cc1 , thanks. 4.34 to 5.60

Fill blank: measured pIC50 of the compound Cc1cc2nc(-c3ccc(C(=O)N/N=C/c4cccnc4)cc3)[nH]c2cc1C is ____. 3.75 to 5.08

Data request, read-out pIC50, for Cc1nn(-c2ccc([N+](=O)[O-])cc2)c(C)c1-c1nc(-c2ccccc2)c(-c2ccccc2)[nH]1 4.64 to 5.57

Reported pIC50, compound Cc1cc2nc(-c3ccc(C(=O)N/N=C/c4ccc(Cl)cc4)cc3)[nH]c2cc1C : ____ 3.75 to 5.08
